System: SK-MEL-2 melanoma
methodNotes: NCI tumour cell line growth inhibition, 48 h
Item-by-item account of TGI

>  <molecule>
COc1cccc(C2C(C#N)=C(N)Oc3c2ccc2ccccc32)c1 (stereo not given)

>  <result>
16.5 µM

$$$$
>  <molecule>
COc1cc(C2CC(=O)Nc3c2cc(Br)c2ccccc32)cc(Br)c1OC (stereo not given)

>  <result>
27.2 µM

$$$$
>  <molecule>
Nc1cc2cccc[n+]2c2cccc(Cl)c12

>  <result>
28.1 µM

$$$$

Input: Check the records and state TGI for CCN1C(=O)N(CC)C2C1NN=c1s/c(=C\c3ccc[nH]3)c(=O)n12 (stereo not given)
Output: > 100 µM

Input: Respond only with TGI recorded for `O=C(Nc1cnc(C(F)(F)F)cn1)c1cc(Cl)ccc1O`
Output: 0.84 µM

Input: Could you please provide reported TGI for `O=C(O)[C@@H](NS(=O)(=O)c1ccc2ccccc2c1)c1ccccc1` ? Thanks!
Output: > 100 µM

###

System: 786-0 renal
methodNotes: NCI tumour cell line growth inhibition, 48 h
Recorded TGI values for a group of compounds are listed next.

Use the examples below as a reference point.
>  <compound>
CC1(C)CCCCCCCCCC(C)(CCCCCCCCCCCCO)C1=O (centres undefined)

>  <testSystem>
786-0 renal

>  <readoutType>
TGI

>  <result>
32.6 µM

$$$$
>  <compound>
COc1ccc2c(c1OC)C(=O)O[C@@H]2[C@H]1c2cc3c(cc2CCN1C)OCO3

>  <testSystem>
786-0 renal

>  <readoutType>
TGI

>  <result>
> 100 µM

$$$$
>  <compound>
O=c1c(-c2ccccc2)coc2cc(OC/C(=N/O)c3ccc(F)cc3)ccc12

>  <testSystem>
786-0 renal

>  <readoutType>
TGI

>  <result>
41.8 µM

$$$$
>  <compound>
CC(NNC(=O)c1ccncc1)c1ccc(Cl)c(Cl)c1 (centres undefined)

>  <testSystem>
786-0 renal

>  <readoutType>
TGI

>  <result>
> 100 µM

$$$$
>  <compound>
CCOC(=O)/C(C#N)=C(/NNc1ccccc1)c1ccncc1C(=O)O

>  <testSystem>
786-0 renal

>  <readoutType>
TGI

>  <result>
> 100 µM

$$$$

Input: Recall the reported TGI of `O=C(O)COc1ccc(C(=O)/C(SS/C(C(=O)c2ccc(OCC(=O)O)c(Cl)c2Cl)=C2\C=C(c3ccc(Br)cc3)SS2)=C2/C=C(c3ccc(Br)cc3)SS2)c(Cl)c1Cl` when tested on 786-0 renal.
Output: > 45.3 µM

Input: // fetch TGI for `C[C@@H]1COCCN1c1cc(-c2ccnn2C)c2ccnc(-c3ccn[nH]3)c2n1` ; system: 786-0 renal
Output: 0.483 µM

Input: Jot down TGI (786-0 renal) of CN(c1ccc(C#N)c(Cl)c1)C1CCC(NC(=O)c2ccc(N3CCN(C4CN(c5ccc6c(c5)C(=O)N(C5CCC(=O)NC5=O)C6=O)C4)CC3)cc2)CC1 (centres undefined) .
Output: > 100 µM

Input: Recall the reported TGI of `COc1cc(/C=N\NC(=O)C[N+](C)(C)C)cc(OC)c1OC` when tested on 786-0 renal.
Output: > 10 µM

###

Test system: OVCAR-5 ovarian
methodNotes: NCI tumour cell line growth inhibition, 48 h
// label = Condition met if TGI is not less than 30 µM, otherwise Condition not met

Field: example entries. Status: answers known.
>  <compound>
CCN(CC)C(=O)COc1cc2c(O)c3c(O)c(C)c4c(c13)C(=O)C(C)(OC=CC(OC)C(C)C(OC(C)=O)C(C)C(O)C(C)C(O)C(C)C=CC=C(C)C(=O)N2)O4 (stereo not given)

>  <cat>
Condition met

$$$$
>  <compound>
CSCCCNC(=O)c1csc(-c2csc(CCNC(=O)CNC(=O)CNC(=O)CNC(=O)OC(C)(C)C)n2)n1

>  <cat>
Condition met

$$$$
>  <compound>
Oc1ccc(Cl)cc1C1=N/C(=N\C/N=C2\N=C(c3cc(Cl)ccc3O)CC(c3ccccc3)N2)NC(c2ccccc2)C1 (stereo not given)

>  <cat>
Condition met

$$$$

Input: Determine whether this compound has TGI no lower than 30 µM: `C[C@H]1c2ccccc2CN1CCCOc1cc2c(cc1OCC1CC1)C1(CCCC1)C(N)=N2`
Output: Condition not met

Input: # check: TGI of C#CCSc1nc(N)c2ncn(C3OC(COP(=O)(O)O)C(O)C3O)c2n1 (stereo not given) is greater than or equal to 30 µM
Output: Condition met

Input: Determine whether measured TGI meets or exceeds 30 µM for C=C1CC[C@@H]2[C@](C)(COC(C)=O)[C@H](OC(C)=O)CC[C@@]2(C)[C@@H]1CC(Nc1ccc(S(=O)(=O)Nc2nccs2)cc1)C1=CCOC1=O (stereo not given in full)
Output: Condition not met

###

Tested on: HL-60(TB) leukemia
methodNotes: NCI tumour cell line growth inhibition, 48 h; in the data active = GI50 below about 0.43 µM; inactive = the rest
Could you please pick one outcome from this set? active, inactive

For orientation, consider the following solved cases.
>  <molecule>
Oc1c(Cl)cc(Cl)c2cccnc12

>  <cat>
inactive

$$$$
>  <molecule>
CCN(CC)CCC(CNc1c(C)cnc2cc(Cl)ccc12)c1ccc(Cl)cc1 (stereo not given)

>  <cat>
inactive

$$$$
>  <molecule>
CN(c1ccc(C#N)c(Cl)c1)C1CCC(NC(=O)c2ccc(N3CCN(C4CN(c5ccc6c(c5)C(=O)N(C5CCC(=O)NC5=O)C6=O)C4)CC3)cc2)CC1 (stereo not given)

>  <cat>
inactive

$$$$

Input: Which outcome was assigned to COc1cccc2c1[C@H]1CO[C@H]3C4C[C@H](C(=O)O)C([C@@H](C2)N13)N4C (stereo not given in full) in this test?
Output: active

Input: How was C=C1CC[C@@H]2[C@](C)(COC(C)=O)[C@H](OC(C)=O)CC[C@@]2(C)[C@@H]1CC(Nc1ccc(S(=O)(=O)Nc2nccs2)cc1)C1=CCOC1=O (stereo not given in full) classified in this test?
Output: inactive

###

System: ACHN renal
methodNotes: NCI tumour cell line growth inhibition, 48 h; in the data active means GI50 below about 0.43 µM; inactive means the rest
Classes to choose from: label 1 for active, label 0 for inactive

Input: What is the recorded call for this molecule in the test? O=C1CSC(c2ccccc2O)N1c1nnc(Cn2ccnc2)o1 (stereo not given)
Output: label 0

Input: Hi team, can someone confirm the assay call for CC1=C(C(=O)Nc2ccc(F)c(Cl)c2)C(c2ccccc2O)NC(=O)N1 (stereo not given) ?
Output: label 0

Input: For C=CCCCOC1[C@H](OCc2ccccc2)C(OCc2ccccc2)C(OC)O[C@@H]1CNC(=O)c1cccc(I)c1 (stereo not given in full) , what call appears in the results of this test?
Output: label 0

Input: What call does the record list for `Cc1oc2c(c1C(=O)N1CC[C@@H](N)C1)C(=O)c1c(c(O)c3ccccc3c1O)C2=O` ?
Output: label 0

###

Listed here: items and their measured TGI.
System: NCI-H23 lung
methodNotes: NCI tumour cell line growth inhibition, 48 h

Some molecules with known TGI results, for comparison:
>  <molecule>
CCCCc1c2c(nc3c1CCc1cc4cc5c(nc4nc1-3)-c1nc3c(c(CCCC)c1CC5)CCC/C3=C\c1ccccc1)/C(=C/c1ccccc1)CCC2

>  <TGI>
> 100 µM

$$$$
>  <molecule>
O=c1[nH]c2cc3cccnc3c(Cl)c2nc1CBr

>  <TGI>
32.2 µM

$$$$
>  <molecule>
Cc1ccc(N=C2SC(c3ccc(C)cc3)(c3ccc(C)cc3)c3ccccc32)cc1

>  <TGI>
> 100 µM

$$$$
>  <molecule>
[N-]=[N+]=NC[C@H]1OCO[C@H](CN=[N+]=[N-])[C@H]2OCCOCCOc3ccccc3OCCOCCO[C@@H]21

>  <TGI>
> 100 µM

$$$$
>  <molecule>
Cc1cc(C)nc(NS(=O)(=O)c2ccc(NC(=O)c3cccn4c(=O)c5ccccc5nc34)cc2)n1

>  <TGI>
> 100 µM

$$$$

Input: In one line, give reported TGI of the entry `Brc1cccc(-c2cc(-c3ccc4nccnc4c3)[nH]n2)c1` .
Output: > 250 µM

Input: Look up and state reported TGI for CC(NNC(=O)c1ccncc1)c1ccc(Cl)c(Cl)c1 (configuration not stated)
Output: > 100 µM

Input: Determine from records and report TGI for CC1=C(C(=O)Nc2ccc(F)c(Cl)c2)C(c2ccccc2O)NC(=O)N1 (configuration not stated)
Output: > 100 µM

Input: Give TGI for `C=C(Br)CNCC(=C)Br`
Output: > 100 µM

Input: Note down TGI recorded for `O=C1c2ccccc2-c2nc(-c3ccccc3)cc3c2c1nc1ccccc13`
Output: 16.1 µM

Input: Tell us which TGI value is on record for `COc1ccc(Cc2nc3ccccc3s2)cc1OC`
Output: 40.4 µM

Input: Indicate the recorded TGI value for this molecule: OC(CCN1CCN(CCOC(c2ccccc2)c2ccccc2)CC1)c1ccc(Br)cc1 (configuration not stated)
Output: 28 µM

Input: Please give the documented TGI of `Cc1ccc(Sc2oc(-c3ccc(C)cc3)nc2[P+](c2ccccc2)(c2ccccc2)c2ccccc2)cc1`
Output: 1.02 µM

Input: Identify the reported TGI for the following entry. CCC1C(=O)OCc2c1cc1n(c2=O)C(CC)c2c-1nc1ccccc1c2Cl (configuration not stated)
Output: > 100 µM

Input: Quick one: give measured TGI for CCN(CC)C(=O)COc1cc2c(O)c3c(O)c(C)c4c(c13)C(=O)C(C)(OC=CC(OC)C(C)C(OC(C)=O)C(C)C(O)C(C)C(O)C(C)C=CC=C(C)C(=O)N2)O4 (configuration not stated)
Output: > 100 µM

Input: Return the recorded TGI value; entry: `CCN(C(=O)CN1CCN(c2cc3c(cc2F)c(=O)c(C(=O)O)cn3CC)CC1)c1nc(-c2ccccc2)cs1`
Output: > 100 µM

Input: Provide one value: measured TGI of C#CCSc1nc(N)c2ncn(C3OC(COP(=O)(O)O)C(O)C3O)c2n1 (configuration not stated)
Output: > 239 µM
